Cited source: patent US20240342292A1

# Target or test system: L858R/T790M/C797S EGFR (Homo sapiens, UniProt P00533, C797S/L858R/T790M)
# Construct: expressed in transfected cells; host or cells: H1975 clone #25 (lentiviral over-expression, endogenous EGFR knocked out by sgRNA)
# Sequence (P00533 25-1210 T790M/C797S/L858R): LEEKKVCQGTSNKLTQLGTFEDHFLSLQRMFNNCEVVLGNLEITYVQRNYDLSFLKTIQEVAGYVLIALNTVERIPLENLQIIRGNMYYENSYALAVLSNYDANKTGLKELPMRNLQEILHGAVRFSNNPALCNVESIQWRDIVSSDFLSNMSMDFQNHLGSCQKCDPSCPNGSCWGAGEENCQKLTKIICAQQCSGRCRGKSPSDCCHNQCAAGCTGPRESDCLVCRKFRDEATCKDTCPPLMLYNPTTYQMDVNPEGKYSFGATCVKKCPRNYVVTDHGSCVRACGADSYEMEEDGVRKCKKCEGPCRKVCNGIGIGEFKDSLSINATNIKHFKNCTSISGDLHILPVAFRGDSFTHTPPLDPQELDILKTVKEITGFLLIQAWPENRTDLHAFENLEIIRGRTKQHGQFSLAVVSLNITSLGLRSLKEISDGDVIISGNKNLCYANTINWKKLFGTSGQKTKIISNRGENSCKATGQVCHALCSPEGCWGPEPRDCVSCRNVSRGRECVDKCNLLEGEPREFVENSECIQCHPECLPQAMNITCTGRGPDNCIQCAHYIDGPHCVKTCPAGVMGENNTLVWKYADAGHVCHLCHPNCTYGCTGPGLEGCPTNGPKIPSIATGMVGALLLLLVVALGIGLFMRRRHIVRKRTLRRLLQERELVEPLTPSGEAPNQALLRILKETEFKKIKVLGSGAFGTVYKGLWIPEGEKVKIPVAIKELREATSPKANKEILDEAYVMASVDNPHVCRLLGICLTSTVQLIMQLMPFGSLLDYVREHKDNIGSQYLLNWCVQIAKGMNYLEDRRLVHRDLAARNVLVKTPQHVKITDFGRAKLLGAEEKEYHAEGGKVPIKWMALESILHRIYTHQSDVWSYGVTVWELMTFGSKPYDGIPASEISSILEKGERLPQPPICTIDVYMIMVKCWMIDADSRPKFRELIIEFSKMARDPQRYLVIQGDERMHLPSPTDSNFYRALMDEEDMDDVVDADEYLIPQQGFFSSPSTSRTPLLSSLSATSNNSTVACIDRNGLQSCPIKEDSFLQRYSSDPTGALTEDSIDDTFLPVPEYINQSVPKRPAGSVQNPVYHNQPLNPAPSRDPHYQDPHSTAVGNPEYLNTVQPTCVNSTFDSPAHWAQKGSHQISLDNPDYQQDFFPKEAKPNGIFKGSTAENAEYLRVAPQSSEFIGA
# Experiment: EGFR degradation HTRF assay in H1975-clone #25 (LTC) cells
# Type: cell-based
# Condition context: NCI-H1975, H1975 # 25-LTC (L858R/T790M/C797S), 16h treatment, maximum percentage of degradation
Measurement kind: Dmax (%)

CCN(C(=O)c1ccc2c(c1)N1C[C@H](C)CCCOc3c(cnn3C)-c3cc(cc(C)n3)C(=O)/N=C/1N2)C1CCN(CCc2cc(F)c([C@H]3CCC(=O)NC3=O)c(F)c2)CC1    87.7
CO[C@H]1CN(CCc2cc(F)c([C@H]3CCC(=O)NC3=O)c(F)c2)CC[C@H]1N(C)C(=O)c1ccc2c(c1)N1C[C@H](C)CCCOc3c(cnn3C)-c3cc(cc(C)n3)C(=O)/N=C/1N2    91.1
Cc1cc2cc(n1)-c1cnn(C)c1OCCC[C@@H](C)CN1/C(=N/C2=O)Nc2ccc(C(=O)N3CC[C@@H](N(C)CCc4cc(F)c([C@H]5CCC(=O)NC5=O)c(F)c4)C3)cc21    89.5
CO[C@@H]1CN(CCc2cc(F)c([C@H]3CCC(=O)NC3=O)c(F)c2)CC[C@H]1NC(=O)c1ccc2c(c1)N1C[C@H](C)CCCOc3c(cnn3C)-c3cc(cc(C)n3)C(=O)/N=C/1N2    93.8
Cc1cc2cc(n1)-c1cnn(C)c1OCCC[C@@H](C)CN1/C(=N/C2=O)Nc2ccc(N3CCC(C(=O)N4CC(Nc5cc(F)c([C@H]6CCC(=O)NC6=O)c(F)c5)C4)CC3)cc21    88.5

====

# Target or test system: L858R/T790M/C797S EGFR (Homo sapiens, UniProt P00533, C797S/L858R/T790M)
# Construct: expressed in transfected cells; host or cells: H1975 clone #25 (lentiviral over-expression, endogenous EGFR knocked out by sgRNA)
# Experiment: EGFR degradation HTRF assay in H1975-clone #25 (LTC) cells
# Type: cell-based
# Condition context: NCI-H1975, H1975 # 25-LTC (L858R/T790M/C797S), 16h treatment, maximum percentage of degradation
Measurement kind: Dmax (%)

Cc1cc2cc(n1)-c1cnn(C)c1OCCC[C@@H](C)CN1/C(=N/C2=O)Nc2ccc(N3CCN(C4CCN(c5ccc6c(c5)CN([C@H]5CCC(=O)NC5=O)C6=O)CC4)CC3)cc21    83.6
Cc1cc2cc(n1)-c1cnn(C)c1OCCC[C@@H](C)CN1/C(=N/C2=O)Nc2ccc(C(=O)N3CC[C@@H](NCCc4cc(F)c([C@H]5CCC(=O)NC5=O)c(F)c4)C3)cc21    84.8
Cc1cc2cc(n1)-c1cnn(C)c1OCCC[C@@H](C)CN1/C(=N/C2=O)Nc2ccc(C(=O)N[C@H]3CCN(CCc4cc(F)c([C@H]5CCC(=O)NC5=O)c(F)c4)CC3(F)F)cc21    92
Cc1cc2cc(n1)-c1cnn(C)c1OCCC[C@@H](C)CN1/C(=N/C2=O)Nc2ccc(CN3CCN(CC4CN(c5cc(F)c([C@H]6CCC(=O)NC6=O)c(F)c5)C4)CC3)cc21    87.9
Cc1cc2cc(n1)-c1cnn(C)c1OCCC[C@@H](C)CN1/C(=N/C2=O)Nc2ccc(C(=O)N(C)CCN3CCN(c4cc(F)c([C@H]5CCC(=O)NC5=O)c(F)c4)CC3)cc21    88.5

====

# Target or test system: L858R/T790M/C797S EGFR (Homo sapiens, UniProt P00533, C797S/L858R/T790M)
# Construct: expressed in transfected cells; host or cells: H1975 clone #25 (lentiviral over-expression, endogenous EGFR knocked out by sgRNA)
# Experiment: EGFR degradation HTRF assay in H1975-clone #25 (LTC) cells
# Type: cell-based
# Condition context: NCI-H1975, H1975 # 25-LTC (L858R/T790M/C797S), 16h treatment, maximum percentage of degradation
Measurement kind: Dmax (%)

Cc1cc2cc(n1)-c1cnn(C)c1OCCC[C@@H](C)CN1/C(=N/C2=O)Nc2ccc(CN3CCN(CCc4cc(F)c([C@H]5CCC(=O)NC5=O)c(F)c4)[C@H](C)C3)cc21    82.5
Cc1cc2cc(n1)-c1cnn(C)c1OCCC[C@@H](C)CN1/C(=N/C2=O)Nc2ccc(N3CCN(CCc4cc(F)c([C@H]5CCC(=O)NC5=O)c(F)c4)CC3=O)cc21    91.8
Cc1cc2cc(n1)-c1cnn(C)c1OCCC[C@@H](C)CN1/C(=N/C2=O)Nc2ccc(N3CCC(N4CCN(c5cc(F)c([C@H]6CCC(=O)NC6=O)c(F)c5)CC4=O)CC3)cc21    88.7
Cc1cc2cc(n1)-c1cnn(C)c1OCCC[C@@H](C)CN1/C(=N/C2=O)Nc2ccc(CN3CCC(N4CCN(C(=O)[C@H]5CCN(c6ccc7c(c6)C(=O)N(C6CCC(=O)NC6=O)C7=O)C5)CC4)CC3)cc21 (stereo partly shown)    81.8
Cc1cc2cc(n1)-c1cnn(C)c1OCCC[C@@H](C)CN1/C(=N/C2=O)Nc2ccc(C3CCN(C4CCN(c5cc(F)c([C@H]6CCC(=O)NC6=O)c(F)c5)CC4)CC3)cc21    91.2
Cc1cc2cc(n1)-c1cnn(C)c1OCCC[C@@H](C)CN1/C(=N/C2=O)Nc2ccc(C(=O)N(C)C3CCC(N(C)CCc4cc(F)c([C@H]5CCC(=O)NC5=O)c(F)c4)CC3)cc21 (stereo partly shown)    74.2
Cc1cc2cc(n1)-c1cnn(C)c1OCCC[C@@H](C)CN1/C(=N/C2=O)Nc2ccc(CN3CCC4(CC3)CN(CCc3cc(F)c([C@H]5CCC(=O)NC5=O)c(F)c3)C4)cc21    91.8
Cc1cc2cc(n1)-c1cnn(C)c1OCCC[C@@H](C)CN1/C(=N/C2=O)Nc2ccc(C(=O)N(C)C3CCN(CCc4cccc5c4C(C)(C)C(=O)N5[C@H]4CCC(=O)NC4=O)CC3)cc21    80.9
Cc1cc2cc(n1)-c1cnn(C)c1OCCC[C@@H](C)CN1/C(=N/C2=O)Nc2ccc(C(=O)N(C)[C@H]3CCN(C4CN(c5cc(F)c([C@H]6CCC(=O)NC6=O)c(F)c5)C4)CC3(F)F)cc21    87.1
Cc1cc2cc(n1)-c1cnn(C)c1OCCC[C@@H](C)CN1/C(=N/C2=O)Nc2ccc(CN3CC4(CCN(CCc5cc(F)c([C@H]6CCC(=O)NC6=O)c(F)c5)CC4)C3)cc21    92.7
Cc1cc2cc(n1)-c1cnn(C)c1OCCC[C@@H](C)CN1/C(=N/C2=O)Nc2ccc(N3CCN(C4CCN(c5cc(F)c([C@H]6CCC(=O)NC6=O)c(F)c5)CC4)CC34CC4)cc21    60.7
Cc1cc2cc(n1)-c1cnn(C)c1OCCC[C@@H](C)CN1/C(=N/C2=O)Nc2ccc(C(=O)N(C)C3CN(CCc4cc(F)c([C@H]5CCC(=O)NC5=O)c(F)c4)C3)cc21    88.5
Cc1cc2cc(n1)-c1cnn(C)c1OCCC[C@@H](C)CN1/C(=N/C2=O)Nc2ccc(N3CCN(C4CCN(c5cc(F)c([C@H]6CCC(=O)NC6=O)c(F)c5)CC4)CC3)cc21    91.1
Cc1cc2cc(n1)-c1cnn(C)c1OCCC[C@@H](C)CN1/C(=C/C2=O)Nc2ccc(CN3CCC(N4CCC(c5cc(F)c([C@H]6CCC(=O)NC6=O)c(F)c5)CC4)CC3)cc21    82.1
Cc1cc2cc(n1)-c1cnn(C)c1OCCC[C@@H](C)CN1/C(=N/C2=O)Nc2ccc(C(=O)N3CC(N(C)CCc4cc(F)c([C@H]5CCC(=O)NC5=O)c(F)c4)C3)cc21    84.3
Cc1cc2cc(n1)-c1cnn(C)c1OCCC[C@@H](C)CN1/C(=N/C2=O)Nc2ccc(C(=O)N(C)[C@@H]3CCN(CCNc4cc(F)c([C@H]5CCC(=O)NC5=O)c(F)c4)C[C@@H]3F)cc21    90.4
Cc1cc2cc(n1)-c1cnn(C)c1OCCC[C@@H](C)CN1/C(=N/C2=O)Nc2ccc(C(=O)N(C)[C@H]3CCN(CCc4cc(F)c([C@H]5CCC(=O)NC5=O)c(F)c4)[C@@H](C)C3)cc21    91.7
Cc1cc2cc(n1)-c1cnn(C)c1OCCC[C@@H](C)CN1/C(=N/C2=O)Nc2ccc(C(=O)N(C)[C@@H]3CCN(CCc4cc(F)c([C@H]5CCC(=O)NC5=O)c(F)c4)C[C@H]3F)cc21    84.8
Cc1cc2cc(n1)-c1cnn(C)c1OCCC[C@@H](C)CN1/C(=N/C2=O)Nc2ccc(CN3CCN(C(=O)C4CN(c5cc(F)c([C@H]6CCC(=O)NC6=O)c(F)c5)C4)CC3)cc21    84.4
